Assign AUC Kasumi-1 Killing (AUC hIgG1 - AUC MAC ID#) to each entry below.
# Study target: Human CD117 as expressed on cells (Kasumi-1 cells; primary human CD34+ bone marrow cells) (human, UniProt P10721 26-976)
# Sequence (P10721 26-976 limits assumed): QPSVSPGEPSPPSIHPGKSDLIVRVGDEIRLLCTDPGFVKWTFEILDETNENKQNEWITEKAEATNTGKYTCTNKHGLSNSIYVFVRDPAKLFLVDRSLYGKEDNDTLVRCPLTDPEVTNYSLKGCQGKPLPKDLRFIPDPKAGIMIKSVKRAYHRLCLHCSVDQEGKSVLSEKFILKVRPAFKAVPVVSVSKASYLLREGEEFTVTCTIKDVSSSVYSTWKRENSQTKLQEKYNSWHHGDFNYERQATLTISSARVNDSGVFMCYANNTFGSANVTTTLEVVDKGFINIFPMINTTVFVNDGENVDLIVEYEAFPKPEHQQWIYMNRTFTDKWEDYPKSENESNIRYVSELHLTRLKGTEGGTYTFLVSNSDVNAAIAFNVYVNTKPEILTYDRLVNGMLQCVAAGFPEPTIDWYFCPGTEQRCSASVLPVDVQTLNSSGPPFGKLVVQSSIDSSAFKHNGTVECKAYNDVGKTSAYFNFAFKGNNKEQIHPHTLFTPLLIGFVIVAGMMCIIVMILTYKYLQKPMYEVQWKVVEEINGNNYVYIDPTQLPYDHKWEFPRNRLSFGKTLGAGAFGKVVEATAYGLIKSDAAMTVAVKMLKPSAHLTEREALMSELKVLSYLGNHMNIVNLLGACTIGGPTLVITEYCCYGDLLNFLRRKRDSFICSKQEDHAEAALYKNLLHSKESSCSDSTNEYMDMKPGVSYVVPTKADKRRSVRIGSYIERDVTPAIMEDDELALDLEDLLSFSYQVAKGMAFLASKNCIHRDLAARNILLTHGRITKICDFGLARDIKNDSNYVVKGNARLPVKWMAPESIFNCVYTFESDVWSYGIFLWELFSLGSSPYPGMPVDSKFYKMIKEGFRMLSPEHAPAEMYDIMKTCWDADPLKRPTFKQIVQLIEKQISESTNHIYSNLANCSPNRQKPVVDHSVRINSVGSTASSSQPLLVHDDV
# Protocol description: cell-based or functional assay

See these solved cases before continuing.
Query: # AUC Kasumi-1 Killing (AUC hIgG1 - AUC MAC ID#) lookup, item Antibody 54 (Ab54) (antibody, V domains shown) VH: QVQLVQSGAEVKKPGSSVKVSCKASGGTFSSYAISWVRQAPGQGLEWMGGIIPIFGTANYAQKFQGRVTITADESTSTAYMELSSLRSEDTAVYYCARGGLDTDEFDLWGRGTLVTVSS VL: DIQMTQSPSSLSASVGDRVTITCRASQSINSYLNWYQQKPGKAPKLLIYAASSLQSGVPSRFSGSGSGTDFTLTISSLQPEDFATYYCQQGVSDITFGGGTKVEIKR
Result: 155000

Query: # AUC Kasumi-1 Killing (AUC hIgG1 - AUC MAC ID#) lookup, item Antibody 57 (Ab57) (antibody, V domains shown) VH: QVQLVQSGAEVKKPGSSVKVSCKASGGTFSLYAISWVRQAPGQGLEWMGGIIPHFGLANYAQKFQGRVTITADESTSTAYMELSSLRSEDTAVYYCARGGLDTDEFDLWGRGTLVTVSS VL: DIQMTQSPSSLSASVGDRVTITCRASQSINSYLNWYQQKPGKAPKLLIYAASSLQSGVPSRFSGSGSGTDFTLTISSLQPEDFATYYCQQGVSDITFGGGTKVEIKR
Result: 157000

Kindly review the next binder as well.
Query: # AUC Kasumi-1 Killing (AUC hIgG1 - AUC MAC ID#) lookup, item Antibody 56 (Ab56) (antibody, V domains shown) VH: QVQLVQSGAEVKKPGSSVKVSCKASGGTFSLYAISWVRQAPGQGLEWMGGIIPAFGTANYAQKFQGRVTITADESTSTAYMELSSLRSEDTAVYYCARGGLDTDEFDLWGRGTLVTVSS VL: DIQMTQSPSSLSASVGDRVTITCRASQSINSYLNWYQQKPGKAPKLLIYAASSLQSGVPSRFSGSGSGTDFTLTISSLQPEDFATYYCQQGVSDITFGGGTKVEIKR
Result: 193000
